What inhibition was measured for each of the following?
biological target: Histone-lysine N-methyltransferase EHMT1 (Homo sapiens); assay: Inhibition of wild type recombinant human histone lysine methyltransferase GLP (951 to 1235 residues) expressed in Escherichia coli Rosetta BL21 DE3 PlysS at 100 uM using ARTKQTARKSTGGKA as substrate preincubated for 5 mins followed by substrate/SAM addition measured after 60 mins by MALDI-TOF MS analysis

Please review the entries below; each comes with its answer.
{"compound": "CN(C)C(=S)SSC(=S)N(C)C", "assaySystem": "Histone-lysine N-methyltransferase EHMT1 (Homo sapiens)", "inhibition": "> 50%"}
{"compound": "O=[Se](=O)(O)O [SODIUM SELENATE]", "assaySystem": "Histone-lysine N-methyltransferase EHMT1 (Homo sapiens)", "inhibition": "10%"}
{"compound": "c1ccc([Se][Se]c2ccccc2)cc1", "assaySystem": "Histone-lysine N-methyltransferase EHMT1 (Homo sapiens)", "inhibition": "> 50%"}
{"compound": "CCN(CC)C(=S)SSC(=S)N(CC)CC", "assaySystem": "Histone-lysine N-methyltransferase EHMT1 (Homo sapiens)", "inhibition": "> 50%"}
{"compound": "O=C1c2ccccc2C(=O)C1(O)O", "assaySystem": "Histone-lysine N-methyltransferase EHMT1 (Homo sapiens)", "inhibition": "40%"}
{"compound": "O=C1c2ccccc2C(=O)c2ccccc21", "assaySystem": "Histone-lysine N-methyltransferase EHMT1 (Homo sapiens)", "inhibition": "20%"}
{"compound": "c1ccc(SSc2ccccn2)nc1", "assaySystem": "Histone-lysine N-methyltransferase EHMT1 (Homo sapiens)", "inhibition": "> 50%"}

INPUT: Looking for the measured inhibition of NC(=O)/N=N/C(N)=O [E927A] , can you help?
OUTPUT: > 50%

Source listed as ChEMBL document CHEMBL4184305.
